Recorded TGI values for a group of compounds are listed next.
Tested on: HCC-2998 colon
Procedure Summary: NCI tumour cell line growth inhibition, 48 h

Compound	TGI
C#CCOc1c(OC)cc(C(=O)/C(C)=C/c2cccc(N=[N+]=[N-])c2)cc1OC	> 100 µM
O=C(Nc1cccc(-n2cc(-c3ccncc3)c(-c3ccc(O)c(Cl)c3)n2)c1)Nc1ccc(Cl)c(C(F)(F)F)c1	6.98 µM
Oc1ccc2c3c1OC1c4[nH]c5c(c4CC4(O)C(C2)N(CC2CC2)CC[C@]314)CC1(O)C2Cc3ccc(O)c4c3[C@@]1(CCN2CC1CC1)C5O4 (stereo partly specified)	36.7 µM
COC(=O)[C@]1(C)CCC[C@]2(C)C3CC4OOC3(C=C4C(C)C)CCC21 (stereo partly specified)	30.4 µM
CC1OC2OC3C(OCC(O)C3O)OC(=O)[C@]34CCC(C)(C)CC3C3=CCC5[C@@]6(C)C[C@H](O)[C@H](OC7OC(CO)C(O)C(O)C7OC7OC(COC(=O)CC(C)(O)CC(=O)OC1C(O)C2O)C(O)C(O)C7O)[C@@](C)(CO)C6CC[C@@]5(C)[C@]3(C)CC4 (stereo partly specified)	2.63 µM
Cc1cc(Cl)ccc1Nc1nc(C(F)(F)F)ccc1C(=O)N/N=C/c1c(Cl)cccc1Cl	> 100 µM
CCCCN1C(=O)C[C@H]2[C@@H]3CCc4cc(OCCN5CCCC5)ccc4[C@H]3CC[C@]2(C)C1=O	15.8 µM
CCCCC/C(=N\c1nc[nH]c1C(N)=O)OCC	> 100 µM
CC(C)(C)C1CCN(C(=O)c2ccccc2)CC1	> 100 µM
O=C(CN1CCCC1)Nc1ccc2sc3ccccc3c(=O)c2n1	39.8 µM
Cc1cc(NC(=O)C(=O)Cc2nc3ccccc3s2)ccc1Cl	> 100 µM
C/C(CN1C(=O)c2ccccc2C1=O)=N\NS(C)(=O)=O	> 100 µM
COc1ccc(OC)c2c3c(ncc12)-c1cc2c(cc1C3)OCO2	> 100 µM
Cn1c2ccccc2c(=S)c2cc(NC(=O)CCCCC(=O)Nc3ccc4c(c3)c(=S)c3ccccc3n4C)ccc21	> 100 µM
O=C(O)CCCC#CCCCC(=O)O	> 100 µM
CC1(C)CC[C@]2(C(=O)O)CC[C@]3(C)C(=CC[C@@H]4[C@@]5(C)CC[C@@H]6OC(C)(C)OC[C@@]6(C)[C@@H]5CC[C@]43C)[C@H]2C1	27.5 µM
CCOC(=O)c1nc2ccc(C(F)(F)F)cc2nc1Nc1ccc(OC)c(OC)c1	> 100 µM
COc1ccc(C2SC(C)C(=O)N2NC(=O)C(O)c2ccccc2)cc1 (stereo unspecified)	> 100 µM
CCNC(=O)Cc1nc2c(=O)[nH]cnc2n1C1OC(CO)C(O)C1O (stereo unspecified)	> 100 µM
O=C1C=CC(=O)N1CCCCCCCCCCN1C(=O)C=CC1=O	71.2 µM
C(#Cc1ccccc1C#Cc1ccccn1)c1ccc(OCCCCCCOc2ccc(C#Cc3ccccc3C#Cc3ccccn3)cc2)cc1	13.3 µM
CCOC(=O)C1C(=O)CC(C)(O)C(C(=O)OCC)C1c1ccc(OC)cc1 (stereo unspecified)	> 100 µM
CCOC(=O)C(SCCO)C(C(=O)OCC)n1cc(C)c(=O)[nH]c1=O (stereo unspecified)	> 78.9 µM
NS(=O)(=O)c1ccc(NCc2cnc3ccccc3c2)cc1	> 100 µM
COc1cc2c(/C=C3/C(=O)Nc4c3ccc3ccccc43)c(Cl)[nH]c2cc1C	< 0.005 µM
COc1cc2c(cc1OC)C(=O)/C(=C/c1ccccc1)C2	> 100 µM
CC(=O)O[C@@H]1CC(=O)O[C@@H]2C[C@@H](CC/C(Cl)=C/C/C=C\1C)O[C@@H]2CO	> 25 µM
O=C1/C(=C/c2ccc(O)cc2)CCc2ccccc21	43.6 µM
COc1cccc(-c2cc(NCc3ccc4c(c3)OCO4)nc(N)n2)c1	2.9 µM
CC(=O)OCC(OC(C)=O)C(OC(C)=O)C(OC(C)=O)C(/C=N\Nc1nc2ccccc2c(=O)[nH]1)OC(C)=O (stereo unspecified)	> 100 µM
OCCCNC(=S)Nc1ccc(-c2nc3ccccc3s2)cc1	26.8 µM
O=C(Cc1nc2ccccc2s1)NC12CC3CC(CC(C3)C1)C2	> 100 µM
CCCNNC(=O)c1ccc(CNC(=O)/C=C/c2ccccc2)cc1	0.653 µM
O=C(O)C#Cc1ccc([N+](=O)[O-])cc1	> 100 µM
CCNCCNc1cc(C2CCCC2)c(C#N)c2nc3ccccc3n12	15.3 µM
N=c1c2c(=O)n3c(nc2nc2sc4ccc(Cl)cc4n12)-c1ccccc1Sc1ccccc1-3	12.8 µM
Cn1c(C2CC(C)(C)c3c2c2ccccc2n3C)cc2ccccc21 (stereo unspecified)	> 304 µM
Cc1nn(C(=O)c2ccncc2)c2c1C(c1ccccc1O)SC(N)=N2 (stereo unspecified)	> 10 µM
N#Cc1ccccc1/C=N/O	> 100 µM
c1ccc(-c2cc(-c3cc(-c4ccccc4)no3)on2)cc1	> 100 µM
C=C1CCC2C(C)(CO)C(O)CCC2(C)C1CC(O)C1=CCOC1=O (stereo unspecified)	40.8 µM

# credit: PubChem BioAssay (NCI)
